All values here come from ChEMBL document CHEMBL4834464.

- protocol_notes: Distribution coefficient, logD of the compound by chromatography
- Type: physicochemical
- setup_conditions: octanol/water
Examples of compounds with documented chromatographic logD follow.
reported_metric: chromatographic logD

{"input_smiles": "CNC(=O)c1cc(C(=O)NCCO)n([C@@H](C)c2ccccc2)n1", "reported_metric": "chromatographic logD", "quantitative_result": 2.4}
{"input_smiles": "CNC(=O)c1cc(C(=O)N[C@H]2CC[C@H](O)CC2)n([C@@H](C)c2cccc(C(F)(F)F)c2)n1", "reported_metric": "chromatographic logD", "quantitative_result": 4.1}
{"input_smiles": "CNC(=O)c1cc(C(=O)N[C@H]2CC[C@H](O)CC2)n([C@@H](C)c2cccc(Cl)c2)n1", "reported_metric": "chromatographic logD", "quantitative_result": 3.7}
{"input_smiles": "CCNC(=O)c1cc2c(-c3cc(C(C)(C)O)ccc3Oc3c(C)cc(F)cc3C)cn(C)c(=O)c2[nH]1", "reported_metric": "chromatographic logD", "quantitative_result": 5.1}
{"input_smiles": "CCCNC(=O)c1cc(C(=O)NC)oc1[C@@H](C)c1ccccc1", "reported_metric": "chromatographic logD", "quantitative_result": 4.2}

====

- protocol_notes: Blood clearance in Beagle dog at 0.5 mg/kg, iv and 0.7 mg/kg, po measured up to 7 hrs by LC-MS/MS analysis
- Format: ADME, organism-based, Canis lupus familiaris
reported_metric: clearance (mL/min/kg)

{"input_smiles": "CNC(=O)c1cc(C(=O)N[C@H]2[C@@H]3C[C@@H](O)C[C@@H]32)n([C@@H](C)c2cccc(Cl)c2)n1", "quantitative_result": 2}

====

# CLint listing for each entry below
- protocol_notes: Intrinsic clearance in dog hepatocytes measured per gram of tissue by LC-MS/MS method
- Assay type: ADME, cell-based, Canis lupus familiaris, Hepatocyte

{"input_smiles": "CNC(=O)c1cc(C(=O)N[C@H]2[C@@H]3COC[C@@H]32)c([C@@H](C)c2ccccc2)o1", "CLint": "< 0.65 mL/min/g"}
{"input_smiles": "CNC(=O)c1cc(C(=O)N[C@H]2[C@@H]3C[C@@H](O)C[C@@H]32)c([C@@H](C)c2ccccc2)o1", "CLint": "< 0.65 mL/min/g"}
{"input_smiles": "CNC(=O)c1cc(C(=O)N[C@H]2CC[C@H](O)CC2)c([C@@H](C)c2ccccc2)o1", "CLint": "< 0.7 mL/min/g"}
{"input_smiles": "CNC(=O)c1cc(C(=O)N[C@H]2[C@@H]3C[C@@H](O)C[C@@H]32)n([C@@H](C)c2cccc(Cl)c2)n1", "CLint": "< 0.65 mL/min/g"}
{"input_smiles": "CNC(=O)c1cc(C(=O)N[C@H]2CC[C@H](O)CC2)n([C@@H](C)c2ccccc2)n1", "CLint": "< 0.7 mL/min/g"}
{"input_smiles": "CNC(=O)c1cc(C(=O)N[C@H]2CC[C@H](O)CC2)c([C@@H](C)c2cccc(Cl)c2)o1", "CLint": "0.71 mL/min/g"}
{"input_smiles": "CNC(=O)c1cc(C(=O)N[C@H]2CC[C@H](OC)CC2)n([C@@H](C)c2ccccc2)n1", "CLint": "< 0.65 mL/min/g"}
{"input_smiles": "CNC(=O)c1cc(C(=O)N[C@H]2[C@@H]3C[C@H](O)C[C@@H]32)n([C@@H](C)c2cccc(Cl)c2)n1", "CLint": "8.3 mL/min/g"}

====

- protocol_notes: Oral bioavailability in male Wistar Han rat at 3 mg/kg measured up to 7 hrs by LC-MS/MS analysis
- Type: ADME, organism-based
- setup_conditions: in vivo
Measured bioavailability accompanies every entry in the list below.

{"input_smiles": "CNC(=O)c1cc(C(=O)N[C@H]2CC[C@H](O)CC2)c([C@@H](C)c2cccc(Cl)c2)o1", "bioavailability (%)": 37}
{"input_smiles": "CNC(=O)c1cc(C(=O)N[C@H]2[C@@H]3C[C@@H](O)C[C@@H]32)c([C@@H](C)c2ccccc2)o1", "bioavailability (%)": 67}
{"input_smiles": "CNC(=O)c1cc(C(=O)N[C@H]2CC[C@H](O)CC2)c([C@@H](C)c2ccccc2)o1", "bioavailability (%)": 72}
{"input_smiles": "CNC(=O)c1cc(C(=O)N[C@H]2CC[C@H](O)CC2)n([C@@H](C)c2ccccc2)n1", "bioavailability (%)": 58}
{"input_smiles": "CNC(=O)c1cc(C(=O)N[C@H]2[C@@H]3C[C@@H](O)C[C@@H]32)n([C@@H](C)c2cccc(Cl)c2)n1", "bioavailability (%)": 57}
{"input_smiles": "CNC(=O)c1cc(C(=O)N[C@H]2CC[C@H](OC)CC2)n([C@@H](C)c2ccccc2)n1", "bioavailability (%)": 80}
{"input_smiles": "CNC(=O)c1cc(C(=O)N[C@H]2[C@@H]3COC[C@@H]32)c([C@@H](C)c2ccccc2)o1", "bioavailability (%)": 100}

====

- protocol_notes: Apparent permeability across apical to basolateral side in MDCK cells
- Format: ADME, cell-based, Canis lupus familiaris
- setup_conditions: dog
Listing: Papp A→B of selected molecules

{"input_smiles": "CNC(=O)c1cc(C(=O)N[C@H]2CC[C@H](O)CC2)n([C@@H](C)c2ccccc2)n1", "output_unit": "×10⁻⁶ cm/s", "Papp A→B": 4.1}
{"input_smiles": "CNC(=O)c1cc(C(=O)N[C@H]2CC[C@H](O)CC2)c([C@@H](C)c2ccccc2)o1", "output_unit": "×10⁻⁶ cm/s", "Papp A→B": 4.9}

====

Below, each entry is listed alongside its reported clearance.
- protocol_notes: Blood clearance in male Wistar Han rat at 1 mg/kg, iv and 3 mg/kg, po measured up to 7 hrs by LC-MS/MS analysis
- Format: ADME, organism-based

{"input_smiles": "CNC(=O)c1cc(C(=O)N[C@H]2[C@@H]3C[C@@H](O)C[C@@H]32)c([C@@H](C)c2ccccc2)o1", "output_unit": "mL/min/kg", "clearance": 41}
{"input_smiles": "CNC(=O)c1cc(C(=O)N[C@H]2CC[C@H](O)CC2)c([C@@H](C)c2cccc(Cl)c2)o1", "output_unit": "mL/min/kg", "clearance": 55}
{"input_smiles": "CNC(=O)c1cc(C(=O)N[C@H]2CC[C@H](O)CC2)c([C@@H](C)c2ccccc2)o1", "output_unit": "mL/min/kg", "clearance": 30}
{"input_smiles": "CNC(=O)c1cc(C(=O)N[C@H]2CC[C@H](OC)CC2)n([C@@H](C)c2ccccc2)n1", "output_unit": "mL/min/kg", "clearance": 32}
{"input_smiles": "CNC(=O)c1cc(C(=O)N[C@H]2[C@@H]3COC[C@@H]32)c([C@@H](C)c2ccccc2)o1", "output_unit": "mL/min/kg", "clearance": 55}
{"input_smiles": "CNC(=O)c1cc(C(=O)N[C@H]2[C@@H]3C[C@@H](O)C[C@@H]32)n([C@@H](C)c2cccc(Cl)c2)n1", "output_unit": "mL/min/kg", "clearance": 21}

====

- protocol_notes: Solubility of the compound in FaSSIF at pH 6.5 using crystalline form of sample incubated for 16 hrs by HPLC gradient analysis
- Assay type: physicochemical
So basically: solubility thermodynamic at 16 h at 700 µg/mL or higher? That is TRUE. Lower than 700 µg/mL? That is FALSE.

{"input_smiles": "CNC(=O)c1cc(C(=O)N[C@H]2[C@@H]3C[C@@H](O)C[C@@H]32)c([C@@H](C)c2ccccc2)o1", "label": "TRUE"}
{"input_smiles": "CNC(=O)c1cc(C(=O)NCCO)c([C@@H](C)c2ccccc2)o1", "label": "TRUE"}
{"input_smiles": "CNC(=O)c1cc(C(=O)N[C@H]2CC[C@H](OC)CC2)n([C@@H](C)c2ccccc2)n1", "label": "FALSE"}
{"input_smiles": "CNC(=O)c1cc(C(=O)N[C@H]2[C@@H]3C[C@@H](OC)C[C@@H]32)n([C@@H](C)c2ccccc2)n1", "label": "TRUE"}
{"input_smiles": "CNC(=O)c1cc(C(=O)N[C@H]2[C@@H]3C[C@@H](O)C[C@@H]32)n([C@@H](C)c2ccccc2)n1", "label": "FALSE"}
{"input_smiles": "CNC(=O)c1cc(C(=O)N[C@H]2[C@@H]3COC[C@@H]32)c([C@@H](C)c2ccccc2)o1", "label": "TRUE"}
{"input_smiles": "CCNC(=O)c1cc(C(=O)NC)oc1[C@@H](C)c1ccccc1", "label": "FALSE"}
{"input_smiles": "CNC(=O)c1cc(C(=O)N[C@H]2CC[C@H](OC)CC2)c([C@@H](C)c2ccccc2)o1", "label": "FALSE"}

====

# Lookup of reported CLint keyed by entry
- protocol_notes: Intrinsic clearance in Wistar han rat hepatocytes measured per gram of tissue incubated for 60 mins by LC-MS/MS method
- Type: ADME, cell-based, Hepatocyte
- setup_conditions: 1 h
reported_metric: CLint

{"input_smiles": "CNC(=O)c1cc(C(=O)N[C@H]2[C@@H]3C[C@H](O)C[C@@H]32)n([C@@H](C)c2cccc(Cl)c2)n1", "result": "17.3 mL/min/g"}
{"input_smiles": "CNC(=O)c1cc(C(=O)N[C@H]2CC[C@H](OC)CC2)n([C@@H](C)c2ccccc2)n1", "result": "1.7 mL/min/g"}
{"input_smiles": "CNC(=O)c1cc(C(=O)N[C@H]2CC[C@H](O)CC2)c([C@@H](C)c2cccc(Cl)c2)o1", "result": "1.5 mL/min/g"}
{"input_smiles": "CNC(=O)c1cc(C(=O)N[C@H]2[C@@H]3COC[C@@H]32)c([C@@H](C)c2ccccc2)o1", "result": "< 0.8 mL/min/g"}
